Where do these numbers come from? They come from patent US20220363763A1.

target: T1, human PD-L1 (construct not stated) (human, UniProt Q9NZQ7 19-239, limits assumed); assay: SPR Biacore, affinity ranking
T1 construct: also called B7-H1 (PD-L1); PD-L1 protein
T1 sequence (Q9NZQ7 19-239 limits assumed): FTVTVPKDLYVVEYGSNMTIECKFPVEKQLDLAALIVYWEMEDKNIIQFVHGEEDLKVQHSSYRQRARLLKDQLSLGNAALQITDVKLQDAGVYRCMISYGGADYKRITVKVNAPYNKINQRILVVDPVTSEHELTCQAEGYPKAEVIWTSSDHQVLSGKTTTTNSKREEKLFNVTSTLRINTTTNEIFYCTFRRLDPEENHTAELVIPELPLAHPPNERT
Binary classification by kon, with 200000 M⁻¹ s⁻¹ as an inclusive lower bound for fulfilled; all other cases are not fulfilled.

binder	classLabel
C4 (antibody, V domains shown) VH: EVQLVESGGGLVQPGGSLRLSCAASGFTFSSYDMSWVRQAPGKSLEWVATISDAGGYIYYRDSVKGRFTISRDNAKNSLYLQMNSLRDEDTAVYICAREFGKRYALDSWGQGTTVTVSS VL: DIQMTQSPSSLSASVGDRVTITCKASQDVWPAVAWYQQKPGKAPKLLIYSTSSRYTGVPSRFSGSGSGTDFTFTISSLQPEDIATYYCQQHSTTPLTFGQGTKLEIK	not fulfilled
WT (parental clone of the Hu1210-41 engineering) (antibody, V domains shown, Differs from Hu1210-41 by S60R (Kabat) in the heavy chain; also called parental antibody WT; parent antibody WT) VH: EVQLVESGGGLVQPGGSLRLSCAASGFTFSSYDMSWVRQAPGKSLEWVATISDAGGYIYYRDSVKGRFTISRDNAKNSLYLQMNSLRDEDTAVYICAREFGKRYALDYWGQGTTVTVSS VL: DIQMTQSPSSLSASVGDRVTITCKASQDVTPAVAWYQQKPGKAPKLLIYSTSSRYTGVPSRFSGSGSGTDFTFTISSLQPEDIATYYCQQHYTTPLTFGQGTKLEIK	not fulfilled
A2 (antibody, V domains shown) VH: EVQLVESGGGLVQPGGSLRLSCAASGFTFSSYDMSWVRQAPGKSLEWVATISDAGGYIYYRDSVKGRFTISRDNAKNSLYLQMNSLRDEDTAVYICARELRGRYALDYWGQGTTVTVSS VL: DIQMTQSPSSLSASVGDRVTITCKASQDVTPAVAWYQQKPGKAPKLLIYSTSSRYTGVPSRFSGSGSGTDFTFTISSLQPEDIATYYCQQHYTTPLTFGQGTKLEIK	not fulfilled
B1 (antibody, V domains shown) VH: EVQLVESGGGLVQPGGSLRLSCAASGFTFSSYDMSWVRQAPGKSLEWVATISDAGGYIYYRDSVKGRFTISRDNAKNSLYLQMNSLRDEDTAVYICAREIFNRYALDYWGQGTTVTVSS VL: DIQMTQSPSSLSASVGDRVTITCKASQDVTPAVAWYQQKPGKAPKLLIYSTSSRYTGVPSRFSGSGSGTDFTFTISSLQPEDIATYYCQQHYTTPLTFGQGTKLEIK	not fulfilled
A3 (antibody, V domains shown) VH: EVQLVESGGGLVQPGGSLRLSCAASGFTFSSYDMSWVRQAPGKSLEWVATISDAGGYIYYRDSVKGRFTISRDNAKNSLYLQMNSLRDEDTAVYICAREFGKRYALDYWGQGTTVTVSS VL: DIQMTQSPSSLSASVGDRVTITCKASQDVTPAVAWYQQKPGKAPKLLIYSTSSRYTGVPSRFSGSGSGTDFTFTISSLQPEDIATYYCQQHSDAPLTFGQGTKLEIK	fulfilled
C3 (antibody, V domains shown) VH: EVQLVESGGGLVQPGGSLRLSCAASGFTFSSYDMSWVRQAPGKSLEWVATISDAGGYIYYRDSVKGRFTISRDNAKNSLYLQMNSLRDEDTAVYICARELHFRYALDYWGQGTTVTVSS VL: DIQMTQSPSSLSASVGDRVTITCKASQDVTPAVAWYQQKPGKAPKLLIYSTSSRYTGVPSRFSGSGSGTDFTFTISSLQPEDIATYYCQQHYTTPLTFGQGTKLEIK	fulfilled
